Provenance of the data: paper PMC6195595

// reported Kd for each item listed
target: Kj12A-^CDD peptide (C-terminal docking domain of Kj12A) (Xenorhabdus stockiae KJ12.1); assay: ITC

>  <BINDER>
Kj12B-^NDD (N-terminal docking domain of Kj12B) (domain or fragment) MKNAAKIVNEALNQGITLFVSDNKLKYKTNRDSIPSELLEEWKQHKQELIDFLTQLESEEES

>  <REPORTED_RESULT>
> 100 µM

$$$$

# context switch: different binder, same Kd
Exam item: Name the recorded Kd of the item Kj12A-^NDD (N-terminal docking domain of Kj12A) (domain or fragment) MKNAAQIVDEALNQGITLFVADNRLQYETSRDNIPEELLNEWKYYRQDLIDFLQQLDAKEETQ in your answer.
Marked response: > 100 µM
